Hi! I'm sharing some pIC50 results obtained with DGKζ (Homo sapiens (Human), UniProt Q13574).
Sequence (Q13574 other isoform, or with tags, fused parts or gaps): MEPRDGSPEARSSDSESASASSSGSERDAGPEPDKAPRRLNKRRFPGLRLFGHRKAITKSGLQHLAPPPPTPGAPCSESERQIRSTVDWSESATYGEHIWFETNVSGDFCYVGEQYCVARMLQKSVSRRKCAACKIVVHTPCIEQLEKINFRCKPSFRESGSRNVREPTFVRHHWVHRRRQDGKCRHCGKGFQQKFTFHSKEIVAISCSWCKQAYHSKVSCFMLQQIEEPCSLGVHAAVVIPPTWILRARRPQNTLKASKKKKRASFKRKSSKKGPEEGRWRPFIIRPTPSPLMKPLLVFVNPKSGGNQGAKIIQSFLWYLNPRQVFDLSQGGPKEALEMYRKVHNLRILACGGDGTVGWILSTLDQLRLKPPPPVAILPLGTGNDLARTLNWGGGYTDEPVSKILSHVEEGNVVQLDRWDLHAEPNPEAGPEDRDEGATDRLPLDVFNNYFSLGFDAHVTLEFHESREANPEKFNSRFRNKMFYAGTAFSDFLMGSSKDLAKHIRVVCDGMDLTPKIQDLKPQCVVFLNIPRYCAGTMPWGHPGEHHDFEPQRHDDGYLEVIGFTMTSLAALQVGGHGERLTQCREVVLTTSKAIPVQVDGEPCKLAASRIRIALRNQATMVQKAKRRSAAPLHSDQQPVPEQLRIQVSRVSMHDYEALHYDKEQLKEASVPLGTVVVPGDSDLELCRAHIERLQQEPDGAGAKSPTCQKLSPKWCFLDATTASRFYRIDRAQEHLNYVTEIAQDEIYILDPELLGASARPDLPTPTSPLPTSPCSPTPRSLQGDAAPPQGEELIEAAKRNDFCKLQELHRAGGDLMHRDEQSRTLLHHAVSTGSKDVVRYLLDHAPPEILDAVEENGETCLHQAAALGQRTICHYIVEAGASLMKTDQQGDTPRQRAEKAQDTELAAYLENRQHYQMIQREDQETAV
# pIC50: negative log10 of molar concentration; output just the value

**Query** I am curious: what pIC50 value has been reported for CC[C@H]1CN(C(C)c2ccc(C)c(C)n2)[C@H](CC)CN1c1cc(=O)n(C)c2cn(CC#N)nc12 (single isomer, unassigned) [Compound A54a] ?
**Result** 7.48

**Query** I am curious: what pIC50 value has been reported for CC[C@H]1CN(C(C)c2ccc(OC3CC3)cn2)[C@H](CC)CN1c1cc(=O)n(C)c2cn(CC#N)nc12 (some centres unmarked) ?
**Result** 6.91

**Query** I am curious: what pIC50 value has been reported for CC[C@H]1CN(C(C)c2ccc(C3CC3)nc2)[C@H](CC)CN1c1c(F)c(=O)n(C)c2cn(CC#N)nc12 (single isomer, unassigned) [Compound A48a] ?
**Result** 7.23

**Query** I am curious: what pIC50 value has been reported for CC[C@H]1CN(C(C)c2ccc(C3CC3)nc2)[C@H](CC)CN1c1nc(=O)n(C)c2cn(CC#N)nc12 (single isomer, unassigned) [Compound A127a] ?
**Result** 7.15

**Query** I am curious: what pIC50 value has been reported for CC[C@H]1CN(C(C)c2ccc3c(C)cnn3c2)[C@H](CC)CN1c1cc(=O)n(C)c2cn(CC#N)nc12 (single isomer, unassigned) [Compound A204a] ?
**Result** 7.51

**Query** I am curious: what pIC50 value has been reported for CC[C@H]1CN(C(C)c2ccc(C(F)(F)F)c(C)c2)[C@H](CC)CN1c1cc(=O)n(C)c2cn(CC#N)nc12 (some centres unmarked) ?
**Result** 6.64

Continuing:
**Query** I am curious: what pIC50 value has been reported for CC#CCn1cc2c(n1)c(N1C[C@@H](CC)N(C(C)c3ccc4nc(C)sc4c3F)C[C@@H]1C)cc(=O)n2C (single isomer, unassigned) [Compound A116a] ?
**Result** 6.74

**Query** I am curious: what pIC50 value has been reported for CC[C@H]1CN(C(C)c2ccn3nc(C)c(F)c3c2)[C@H](CC)CN1c1cc(=O)n(C)c2cn(CC#N)nc12 (single isomer, unassigned) [Compound A169a] ?
**Result** 6.68

**Query** I am curious: what pIC50 value has been reported for CC[C@H]1CN(C(C)c2ccn3nc(C)cc3c2)[C@H](CC)CN1c1cc(=O)n(C)c2cn(CC#N)nc12 (single isomer, unassigned) [Compound A162b] ?
**Result** 5.49

**Query** I am curious: what pIC50 value has been reported for CC[C@H]1CN(C(C)c2ccn3nccc3n2)[C@H](CC)CN1c1cc(=O)n(C)c2cn(CC#N)nc12 (single isomer, unassigned) [Compound A154b] ?
**Result** 7.26

**Query** I am curious: what pIC50 value has been reported for CC[C@H]1CN(C(C)c2ccn3nc(C)cc3c2)[C@H](CC)CN1c1cc(=O)n(C)c2cn(CC#N)nc12 (single isomer, unassigned) [Compound A162a] ?
**Result** 7.29

---

- system.name: DGKζ (Homo sapiens (Human), UniProt Q13574)
// reported IC50 per item
# number only, unit µM dropped from output

**Query** // lookup IC50 | system=DGKζ (Homo sapiens (Human), UniProt Q13574) | key= CC[C@H]1CN(C(C)c2ccc(-c3cn(C)nn3)cc2)[C@H](CC)CN1c1cc(=O)n(C)c2cn(CC#N)nc12 (stereo partly drawn)
**Result** 3.69

Continuing:
**Query** // lookup IC50 | system=DGKζ (Homo sapiens (Human), UniProt Q13574) | key= CC[C@H]1CN(C(C)c2ccn3nccc3n2)[C@H](CC)CN1c1nc(=O)n(C)c2cn(CC#N)nc12 (single isomer, unassigned) [Compound A163b]
**Result** 0.426

---

- system.name: DGKζ (Homo sapiens (Human), UniProt Q13574)
outcome.measure: log10 of IC50 (log10 of the value in nM)
Note: values are log10 of IC50 expressed in nM.

**Query** I am curious: what log10 of IC50 value has been reported for CC[C@H]1CN(C(C)c2ccc3nc(C)sc3n2)[C@H](CC)CN1c1cc(=O)n(C)c2cn(CC#N)nc12 (single isomer, unassigned) [Compound A133a] ?
**Result** 3.18

**Query** I am curious: what log10 of IC50 value has been reported for CC[C@@H]1CN(c2cc(=O)n(C)c3cn(CC#N)nc23)[C@@H](C)CN1C(C)c1ccc2ncsc2c1 (single isomer, unassigned) [Compound A92a] ?
**Result** 0.96

**Query** I am curious: what log10 of IC50 value has been reported for CC[C@@H]1CN(c2cc(=O)n(C)c3cn(CC#N)nc23)[C@@H](C)CN1C(C)c1ccc2nc(C)sc2c1F (single isomer, unassigned) [Compound A104a] ?
**Result** 0.81

**Query** I am curious: what log10 of IC50 value has been reported for CC[C@H]1CN(C(C)c2ccn3nc(C)c(F)c3n2)[C@H](CC)CN1c1cc(=O)n(C)c2cn(CC#N)nc12 (single isomer, unassigned) [Compound A160b] ?
**Result** 1.18

**Query** I am curious: what log10 of IC50 value has been reported for CC#CCn1cc2c(n1)c(N1C[C@@H](CC)N(C(C)c3ccc(C4CC4)nc3)C[C@@H]1CC)cc(=O)n2C (single isomer, unassigned) [Compound A39b] ?
**Result** 3.37

**Query** I am curious: what log10 of IC50 value has been reported for CC[C@H]1CN(C(C)c2ccc3nc(C)cn3n2)[C@H](CC)CN1c1cc(=O)n(C)c2cn(CC#N)nc12 (single isomer, unassigned) [Compound A149b] ?
**Result** 1.97

Continuing:
**Query** I am curious: what log10 of IC50 value has been reported for CC[C@H]1CN(C(C)c2ccc(CN3CCC(F)(F)CC3)cn2)[C@H](CC)CN1c1cc(=O)n(C)c2cn(CC#N)nc12 (some centres unmarked) [Compound A182] ?
**Result** 2.45

**Query** I am curious: what log10 of IC50 value has been reported for CC[C@H]1CN(C(C)c2cnc(C3CC3)cc2F)[C@H](CC)CN1c1cc(=O)n(C)c2cn(CC#N)nc12 (single isomer, unassigned) [Compound A47b] ?
**Result** 3.05

**Query** I am curious: what log10 of IC50 value has been reported for CC[C@H]1CN(C(C)c2ccc(OC)c(F)c2)[C@H](CC)CN1c1cc(=O)n(C)c2cn(CC#N)nc12 (some centres unmarked) [Compound A20] ?
**Result** 2.49

**Query** I am curious: what log10 of IC50 value has been reported for CC[C@H]1CN(C(C)c2ccc3c(c2)OCO3)[C@H](CC)CN1c1cc(=O)n(C)c2cn(CC#N)nc12 (some centres unmarked) [Compound A185] ?
**Result** 1.82

**Query** I am curious: what log10 of IC50 value has been reported for CC[C@H]1CN(C(C)c2ccc(C3CC3)nc2)[C@H](CC)CN1c1cc(=O)n(C)c2cn(CC#N)nc12 (single isomer, unassigned) [Compound A38a] ?
**Result** 2.10

**Query** I am curious: what log10 of IC50 value has been reported for CC[C@H]1CN(C(C)c2ccc(C(=O)N3CCC(OC)CC3)cc2)[C@H](CC)CN1c1cc(=O)n(C)c2cn(CC#N)nc12 (single isomer, unassigned) [Compound A194a] ?
**Result** 3.16

---

Hi! I'm sharing some pIC50 results obtained with DGKα (Homo sapiens (Human)).
Sequence (P23743 whole entry): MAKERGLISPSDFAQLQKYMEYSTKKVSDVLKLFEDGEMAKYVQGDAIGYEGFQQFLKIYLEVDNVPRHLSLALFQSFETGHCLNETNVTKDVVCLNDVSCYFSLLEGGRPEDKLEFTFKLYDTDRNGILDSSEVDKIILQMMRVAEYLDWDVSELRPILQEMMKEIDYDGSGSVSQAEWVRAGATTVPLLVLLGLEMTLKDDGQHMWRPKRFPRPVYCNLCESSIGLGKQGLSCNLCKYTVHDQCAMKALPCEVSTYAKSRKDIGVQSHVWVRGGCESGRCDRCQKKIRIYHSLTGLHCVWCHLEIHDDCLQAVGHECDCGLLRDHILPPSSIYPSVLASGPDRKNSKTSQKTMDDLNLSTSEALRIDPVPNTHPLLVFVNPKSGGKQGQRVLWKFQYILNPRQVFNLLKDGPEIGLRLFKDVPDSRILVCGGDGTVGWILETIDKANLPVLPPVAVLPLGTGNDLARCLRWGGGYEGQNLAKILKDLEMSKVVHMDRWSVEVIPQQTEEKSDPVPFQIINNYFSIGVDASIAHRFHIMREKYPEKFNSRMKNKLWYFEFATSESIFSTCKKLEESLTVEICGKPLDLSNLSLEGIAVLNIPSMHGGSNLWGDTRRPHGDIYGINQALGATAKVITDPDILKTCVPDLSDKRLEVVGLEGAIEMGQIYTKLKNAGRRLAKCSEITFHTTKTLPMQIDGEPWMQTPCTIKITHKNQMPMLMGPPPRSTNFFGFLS
# pIC50: negative log10 of molar concentration; output just the value

In the examples that follow, each entry is paired with its recorded pIC50.
**Query** // lookup pIC50 | system=DGKα (Homo sapiens (Human)) | key= CC[C@H]1CN(C(C)c2ccc(COC)cn2)[C@H](CC)CN1c1cc(=O)n(C)c2cn(CC#N)nc12 (stereo partly shown) [Compound A61]; also: full length DGKα 7.5 nM
**Result** 6.84

**Query** // lookup pIC50 | system=DGKα (Homo sapiens (Human)) | key= CCc1nc2cc(C(C)N3C[C@H](CC)N(c4cc(=O)n(C)c5cn(CC#N)nc45)C[C@H]3CC)ccc2s1 (stereo partly shown) [Compound A109]; also: full length DGKα 7.5 nM
**Result** 5.61

Continuing:
**Query** // lookup pIC50 | system=DGKα (Homo sapiens (Human)) | key= CC[C@H]1CN(C(C)c2ccc(N)nc2)[C@H](CC)CN1c1cc(=O)n(C)c2cn(CC#N)nc12 (single isomer, unassigned) [Compound A187b]; also: full length DGKα 7.5 nM
**Result** 4.92

**Query** // lookup pIC50 | system=DGKα (Homo sapiens (Human)) | key= CC[C@@H]1CN(c2cc(=O)n(C)c3cn(CC#N)nc23)[C@@H](C)CN1C(C)c1ccc2cc(F)sc2n1 (stereo partly shown) [Compound A132]; also: full length DGKα 7.5 nM
**Result** 7.20
